Data origin: patent US6274611A

# System: chrysin-binding proteins p44, p40, p29, p28 (subunits of CKII)
# EXPERIMENTAL DETAILS: Chrysin affinity resin binding reaction with competitor compounds in OM-10.1 cell lysates (SDS-PAGE silver stain, anti-CKII immunoblot)
# Set-up: species or system human
# MEASUREMENT CONDITIONS: competitor 10 μM added to lysate of TNF-α-induced OM-10.1 cells; silver staining
# Method: The affinity resin was made by attachment of 4'-OH-chrysin chrysin (apigenin) to epoxy-activated Sepharose 6B, resulting in chrysin in an ether-linkage. […] OM-10.1 and HL-60 cells as described in Example 1 were propagated in RPMI-1640 supplemented with 10% heat-inactivated fetal calf serum, 2 mM glutamine, and 1% Pen-Strep. […] Samples were concentrated via centrifugation at 23° C. through a 10 kD cut-off membrane (Centricon), then analyzed by SDS-PAGE (8%), and silver stained. […]
QUANTITY: effect of competitor on binding of proteins (p44, p40, p29, p28) to the chrysin-resin

COMPOUND	RESULT
Oc1cc(O)c2c(c1)OC(c1ccc(O)c(O)c1)C(O)C2 (stereo not drawn)	no effect
COc1ccc([C@@H]2CC(=O)c3c(O)cc(O[C@@H]4O[C@H](CO[C@@H]5O[C@@H](C)[C@H](O)[C@@H](O)[C@H]5O)[C@@H](O)[C@H](O)[C@H]4O)cc3O2)cc1O	no effect

###

# System: HIV-1
# EXPERIMENTAL DETAILS: HIV-1 activation in TNF-α-treated OM-10.1 cultures, culture supernatant reverse transcriptase activity
# Format: cell-based, HIV-1 in OM-10.1 cells
# MEASUREMENT CONDITIONS: OM-10.1 cells, TNF-α induction
QUANTITY: HIV-1 inhibitory activity in the OM-10.1 induction system

MOLECULE	RESULT
O=c1cc(-c2ccc(O)cc2)oc2cc(O)cc(O)c12	HIV-inhibitory
COc1ccc2c(c1)c(OC(C)C)c(C(N)=O)[s+]2[O-] (centres unmarked)	HIV-inhibitory
